This collection of values is drawn from patent US10681909B2.

Measured Plant response rating (scale of 0 to 100 where 0 is no effect and 100 is complete control) accompanies every entry in the list below.
Test system: blackgrass
Test: Test C preemergence
Type: in vivo, Alopecurus myosuroides
Conditions: Blackgrass, preemergence, 250 g ai/ha
Note: the reply should be a number with no unit written.

Past entries and their recorded results:
{"columns": ["input_smiles", "tgt", "measured"],
 "data": [
  ["COc1nc(-c2ccccc2)nn1Cc1ccnc(C(F)(F)F)c1", "blackgrass", 90],
  ["CCc1nc(-c2ccc(C(F)(F)F)cc2)nn1Cc1ccnc(C(F)(F)F)c1", "blackgrass", 85],
  ["Fc1ccc(-c2nc(OCC(F)(F)F)n(Cc3ccnc(C(F)(F)F)c3)n2)cc1", "blackgrass", 90],
  ["FC(F)(F)COc1nc(-c2ccccc2)nn1Cc1ccnc(C(F)(F)F)c1", "blackgrass", 90],
  ["CCOc1nc(-c2ccccc2)nn1Cc1ccnc(C(F)(F)F)c1", "blackgrass", 90]
]}

// below: Plant response rating (scale of 0 to 100 where 0 is no effect and 100 is complete control) requested for another molecule
Output Plant response rating (scale of 0 to 100 where 0 is no effect and 100 is complete control) of CCCc1nc(-c2ccc(F)cc2)nn1Cc1ccnc(C(F)(F)F)c1
95

###

Test system: blackgrass
Assay: Test A postemergence
Type: in vivo, Alopecurus myosuroides
Details: 125 g ai/ha, 0 to 100 scale (0 no effect, 100 complete control), approx. 10 d
Measured Plant response rating, Blackgrass accompanies every entry in the list below.
Note: the reply should be a number with no unit written.

Past entries and their recorded results:
{"columns": ["molecule", "tgt", "recorded_metric", "measured"],
 "data": [
  ["Cc1nc(-c2ccc(Br)cc2)nn1Cc1ccnc(C(F)(F)F)c1 [Compound 36]", "blackgrass", "Plant response rating, Blackgrass", 30],
  ["CCCOc1nc(-c2ccccc2)nn1Cc1ccnc(C(F)(F)F)c1 [Compound 33]", "blackgrass", "Plant response rating, Blackgrass", 30],
  ["Cc1nc(-c2ccc(OC(F)(F)F)cc2)nn1Cc1ccnc(C(F)(F)F)c1 [Compound 37]", "blackgrass", "Plant response rating, Blackgrass", 20],
  ["FC(F)(F)COc1nc(-c2ccc(Cl)cc2)nn1Cc1ccnc(C(F)(F)F)c1 [Compound 31]", "blackgrass", "Plant response rating, Blackgrass", 50]
]}

Output Plant response rating, Blackgrass of COc1nc(-c2ccc(C(F)(F)F)cc2)nn1Cc1ccnc(C(F)(F)F)c1 [Compound 25]
30

###

Measured Plant response rating, Foxtail, Giant accompanies every entry in the list below.
System: foxtail, giant
Test: Test A postemergence
Format: in vivo, Setaria faberii
Conditions: 31 g ai/ha, 0 to 100 scale (0 no effect, 100 complete control), approx. 10 d
Note: the reply should be a number with no unit written.

Output Plant response rating, Foxtail, Giant of Cc1nc(-c2ccc(F)cc2)nn1Cc1ccnc(C(F)(F)F)c1
20

Output Plant response rating, Foxtail, Giant of CCCOc1nc(-c2ccc(C(F)(F)F)cc2)nn1Cc1ccnc(C(F)(F)F)c1
30

Output Plant response rating, Foxtail, Giant of FC(F)(F)COc1nc(-c2ccc(C(F)(F)F)cc2)nn1Cc1ccnc(C(F)(F)F)c1
20

Output Plant response rating, Foxtail, Giant of COc1nc(-c2ccc(OC(F)(F)F)cc2)nn1Cc1ccnc(C(F)(F)F)c1
0

Output Plant response rating, Foxtail, Giant of CCOc1nc(-c2ccc(Cl)cc2)nn1Cc1ccnc(C(F)(F)F)c1
70

###

System: lambsquarters
Experiment: Test C preemergence
Assay type: in vivo, Chenopodium album
Settings: Preemergence, 62 g ai/ha, visual rating after 13 to 15 d
recorded_metric: Lambsquarters plant response rating (0 to 100)
Note: the reply should be a number with no unit written.

Past entries and their recorded results:
{"columns": ["input_smiles", "measured"],
 "data": [
  ["CCOc1nc(-c2ccc(C(F)(F)F)cc2)nn1Cc1ccnc(C(F)(F)F)c1", 98],
  ["COc1nc(-c2ccc(F)cc2)nn1Cc1ccnc(C(F)(F)F)c1", 85]
]}

Output Lambsquarters plant response rating (0 to 100) of FC(F)(F)COc1nc(-c2ccc(Cl)cc2)nn1Cc1ccnc(C(F)(F)F)c1
100

Output Lambsquarters plant response rating (0 to 100) of CCc1nc(-c2ccc(C(F)(F)F)cc2)nn1Cc1ccnc(C(F)(F)F)c1
98

Output Lambsquarters plant response rating (0 to 100) of FC(F)(F)COc1nc(-c2ccccc2)nn1Cc1ccnc(C(F)(F)F)c1
75

###

System: ducksalad
Assay: Test B flooded paddy test
Type: in vivo, Heteranthera limosa
Conditions: 125 g ai/ha, applied to paddy water at 2-leaf stage, visual rating after 13 to 15 d, scale 0 (no effect) to 100 (complete control)
recorded_metric: Plant response rating, Ducksalad, Flood
Note: the reply should be a number with no unit written.

Past entries and their recorded results:
{"columns": ["molecule", "measured"],
 "data": [
  ["CCCc1nc(-c2ccc(C(F)(F)F)cc2)nn1Cc1ccnc(C(F)(F)F)c1 [Compound 12]", 0],
  ["CCCn1nc(-c2ccc(F)cc2)nc1C(O)c1ccnc(C(F)(F)F)c1 (stereo not shown) [Compound 16]", 0],
  ["CCn1nc(-c2ccc(F)cc2)nc1Cc1ccnc(C(F)(F)F)c1 [Compound 18]", 70]
]}

// below: Plant response rating, Ducksalad, Flood requested for another molecule
Enter measured Plant response rating, Ducksalad, Flood, system ducksalad, for the molecule shown: Cn1nc(-c2ccc(F)cc2)nc1Cc1ccnc(C(F)(F)F)c1 [Compound 13]
65

###

Test system: lambsquarters
Test: Test D preemergence
Assay type: in vivo, Chenopodium album
Conditions: 16 g ai/ha, 0 is no effect, 100 is complete control
Excerpt: […]
recorded_metric: Plant response rating (0 to 100), Lambsquarters
Note: the reply should be a number with no unit written.

Enter measured Plant response rating (0 to 100), Lambsquarters, system lambsquarters, for the molecule shown: FC(F)(F)COc1nc(-c2ccc(Cl)cc2)nn1Cc1ccnc(C(F)(F)F)c1
75

Enter measured Plant response rating (0 to 100), Lambsquarters, system lambsquarters, for the molecule shown: COc1nc(-c2ccc(Cl)cc2)nn1Cc1ccnc(C(F)(F)F)c1
75

Enter measured Plant response rating (0 to 100), Lambsquarters, system lambsquarters, for the molecule shown: Fc1ccc(-c2nc(OCC(F)(F)F)n(Cc3ccnc(C(F)(F)F)c3)n2)cc1
85

Enter measured Plant response rating (0 to 100), Lambsquarters, system lambsquarters, for the molecule shown: FC(F)(F)COc1nc(-c2ccccc2)nn1Cc1ccnc(C(F)(F)F)c1
65

###

System: pigweed
Experiment: Test C postemergence
Assay type: in vivo, Amaranthus retroflexus
Conditions: 62 g ai/ha
recorded_metric: Plant response rating (scale of 0 to 100 where 0 is no effect and 100 is complete control)
Note: the reply should be a number with no unit written.

{"columns": ["input_smiles", "tgt", "measured"],
 "data": [
  ["CCOc1nc(-c2ccc(F)cc2)nn1Cc1ccnc(C(F)(F)F)c1", "pigweed", 95],
  ["CCOc1nc(-c2ccccc2)nn1Cc1ccnc(C(F)(F)F)c1", "pigweed", 85],
  ["CCc1nc(-c2ccc(C(F)(F)F)cc2)nn1Cc1ccnc(C(F)(F)F)c1", "pigweed", 98],
  ["CCCOc1nc(-c2ccccc2)nn1Cc1ccnc(C(F)(F)F)c1", "pigweed", 90],
  ["COc1nc(-c2ccc(C(F)(F)F)cc2)nn1Cc1ccnc(C(F)(F)F)c1", "pigweed", 100],
  ["COc1nc(-c2ccc(Cl)cc2)nn1Cc1ccnc(C(F)(F)F)c1", "pigweed", 95]
]}

// below: Plant response rating (scale of 0 to 100 where 0 is no effect and 100 is complete control) requested for another compound
Enter measured Plant response rating (scale of 0 to 100 where 0 is no effect and 100 is complete control), system pigweed, for the compound shown: CCOc1nc(-c2ccc(C(F)(F)F)cc2)nn1Cc1ccnc(C(F)(F)F)c1
98

###

System: foxtail, giant
Test: Test A postemergence
Assay type: in vivo, Setaria faberii
Conditions: 125 g ai/ha, 0 to 100 scale (0 no effect, 100 complete control), approx. 10 d
recorded_metric: Plant response rating, Foxtail, Giant
Note: the reply should be a number with no unit written.

Output Plant response rating, Foxtail, Giant of Cc1nc(-c2ccc(C(F)(F)F)cc2)nn1Cc1cccc(OC(F)(F)F)c1
10

Output Plant response rating, Foxtail, Giant of CSc1nc(-c2ccc(F)cc2)nn1Cc1ccnc(C(F)(F)F)c1
10

Output Plant response rating, Foxtail, Giant of Cc1nc(-c2ccc(F)cc2)nn1Cc1ccnc(C(F)(F)F)c1
80

###

Test system: wheat
Experiment: Test A postemergence
Type: in vivo, Triticum aestivum
Conditions: 125 g ai/ha, 0 to 100 scale (0 no effect, 100 complete control), approx. 10 d
recorded_metric: Plant response rating, Wheat

Output Plant response rating, Wheat of CSc1nc(-c2ccc(F)cc2)nn1Cc1ccnc(C(F)(F)F)c1
0

Output Plant response rating, Wheat of Cc1nc(-c2ccc(F)cc2)nn1Cc1ccnc(C(F)(F)F)c1
10

Output Plant response rating, Wheat of CCc1nc(-c2ccncc2)nn1Cc1ccnc(C(F)(F)F)c1
0

Output Plant response rating, Wheat of CCc1nc(-c2ccc(F)cc2)nn1Cc1ccnc(C(F)(F)F)c1
0

Output Plant response rating, Wheat of CCCn1nc(-c2ccc(F)cc2)nc1C(=O)c1ccnc(C(F)(F)F)c1
20

Output Plant response rating, Wheat of CCCOc1nc(-c2ccccc2)nn1Cc1ccnc(C(F)(F)F)c1
0

Output Plant response rating, Wheat of COc1nc(-c2ccc(C(F)(F)F)cc2)nn1Cc1ccnc(C(F)(F)F)c1
20
